read-out: solute carrier (SLCO1B1), SLCO1B1 (gene 10599); assay: LTEA_HepaRG_SLCO1B1: Life Technologies and Expression Analysis (LTEA) Assay for solute carrier (SLCO1B1) using HepaRG (AID 2283530); conditions: mRNA level, 48 h; actives raise or lower the signal
The source made the active and inactive calls. Rule for the calls: active = hit-call score of the fitted dose curve at least 0.9, where 1 is the maximum; inactive = score below 0.9.
assay_readout: outcome

Clc1cccc(Cl)c1
inactive
Clc1cccc(Cl)c1Cl
inactive
O=C(O)C1(c2ccc3c(c2)OC[C@H](Cc2ccc(-c4ccccc4)cc2)[C@H]3O)CCCC1
inactive
CN(C)C(=S)S
inactive

input: Entry CC(C)O.CC(C)O.OCCN(CCO)CCO.OCCN(CCO)CCO.[Ti] has what outcome?
output: inactive

====

test: BSK_3C_SRB: Viability Assessment in the BioMAP Diversity Plus: 3C Assay (AID 2283023); conditions: primary human endothelial cells (HUVEC);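 note: cells read 24 h after compound dosing; fitted both ways against DMSO so a hit may be signal rise or drop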
Calls of active or inactive are those of the source. The calls were made as follows: active = hit-call score of the fitted dose curve at least 0.9, where 1 is the maximum; inactive = score below 0.9.
Result category, one only: active, inactive

input: Assay outcome for CCC(C)(C#N)N=NC(C)(C#N)CC (stereo not given) : what was it?
output: inactive

input: Also, CC(C)(C)c1cc([N+](=O)[O-])cc(C(C)(C)C)c1O please.
output: active

input: Follow-up entry: Cc1cc(Cl)ccc1N
output: inactive

input: Please answer likewise for O=C(CCl)NCO
output: inactive

input: Same read-out for CC(C)(COCC1CO1)COCC1CO1 (stereo not given) ?
output: inactive

input: Cool, now CC(C)(C)c1ccccc1O
output: inactive

input: # repeat for CN(C)C(=S)S
output: inactive

input: Same again, this time with O=S(=O)(c1ccc(Cl)cc1)c1cc(Cl)c(Cl)cc1Cl
output: active

input: # iterate: OC(Cc1ccccc1Cl)(Cn1cncn1)C1(Cl)CC1 (stereo not given)
output: inactive

input: And for OCCCCO ?
output: inactive

input: Then what about the compound c1ccc(-c2cccc(-c3ccccc3)c2)cc1 ?
output: active

input: Again, but for Oc1cc(Cl)c(Cl)cc1Cl
output: active

input: Query COCC(=O)N(c1c(C)cccc1C)[C@H](C)C(=O)OC next
output: inactive

input: Quick one: CCOC(=O)C(SP(=S)(OC)OC)c1ccccc1 (stereo not given)
output: active

input: For CCOP(=S)(OCC)OP(=S)(OCC)OCC then?
output: active

input: Next: OCCN(CCO)CCO
output: inactive

input: What do you have for Oc1ccc(Cc2ccc(O)cc2)cc1 ?
output: inactive

input: And what about the compound OC(Cc1ccccc1Cl)(Cn1[nH]cnc1=S)C1(Cl)CC1 (stereo not given) ?
output: active

input: Cool, now O=C(O)C1(c2ccc3c(c2)OC[C@H](Cc2ccc(-c4ccccc4)cc2)[C@H]3O)CCCC1
output: active

input: Try this compound too: CC(C)=CC1C(C(=O)OCc2cccc(Oc3ccccc3)c2)C1(C)C (stereo not given)
output: active

input: Can you handle CCOC(=O)CCN(SN(C)C(=O)Oc1cccc2c1OC(C)(C)C2)C(C)C next?
output: inactive

input: Same read-out for C=CC(Cl)CCl (stereo not given) ?
output: inactive

input: Lookup Cc1ccc(OP(=O)(Oc2ccc(C)cc2C)Oc2ccc(C)cc2C)c(C)c1
output: active

input: Input c1ccc2sc(SNC3CCCCC3)nc2c1
output: inactive

input: Please answer likewise for Oc1cccc(-c2ccccc2)c1
output: active

input: Also O=[N+]([O-])c1ccc(Nc2ccccc2)cc1 , if possible.
output: inactive

input: Also, CCCCCCCCCCCCc1cccc(S(=O)(=O)O)c1 please.
output: inactive

input: What would you report for Cc1ccc2nc3sc(=O)sc3nc2c1 ?
output: active

input: Then Oc1c(Br)cc(Br)cc1Br ?
output: active

input: Same question for N#CCCC(Br)(C#N)CBr (stereo not given) please.
output: active

input: Same question, Clc1cccc(Cl)c1Cl this time
output: inactive

input: Next up: CCOC(=O)CC(=O)CCl
output: inactive

input: Thanks! And CCOP(=S)(OCC)SCS(=O)(=O)C(C)(C)C ?
output: inactive

input: Next: C#CCOC(=O)/C=C(C)/C=C/CC(C)CCCC(C)C (stereo not given)
output: active

input: Entry CC1(C)[C@H](C(=O)O[C@H](C#N)c2cccc(Oc3ccccc3)c2)[C@@H]1/C=C(\Cl)C(F)(F)F please
output: inactive

input: Please do the same for Cc1cc(Cl)ccc1OC(C)C(=O)O (stereo not given) as well.
output: inactive

input: Param item: Oc1c(Cl)cc(Cl)cc1Cl
output: inactive

input: Next record, please: CCOP(=O)(OCC)SCCSCC
output: inactive

input: Cool, now CCCCN(CCCC)C(=S)[S-].CCCCN(CCCC)C(=S)[S-].[Ni+2]
output: inactive

input: Now the same for O=C(Cc1ccccc1)OCCc1ccccc1
output: inactive

input: Further, for O=S(=O)(C(Cl)(Cl)Cl)C(Cl)(Cl)Cl ?
output: active

input: Also, CCCCOC(=O)COC(=O)c1ccccc1C(=O)OCCCC please.
output: inactive

input: Record: Cc1ccccc1OP(=O)(Oc1ccccc1C)Oc1ccccc1C
output: active

input: Try this compound too: NC(=O)CCl
output: inactive

input: What do you have for Cc1cc(C)cc(C)c1 ?
output: inactive
